// provenance: paper PMC3078958

- assayedSystem: CsOxOx (Ceriporiopsis subvermispora bicupin oxalate oxidase, isoform-G) (Gelatoporia subvermispora, UniProt Q5ZH56)
- Sequence (Q5ZH56 21-461): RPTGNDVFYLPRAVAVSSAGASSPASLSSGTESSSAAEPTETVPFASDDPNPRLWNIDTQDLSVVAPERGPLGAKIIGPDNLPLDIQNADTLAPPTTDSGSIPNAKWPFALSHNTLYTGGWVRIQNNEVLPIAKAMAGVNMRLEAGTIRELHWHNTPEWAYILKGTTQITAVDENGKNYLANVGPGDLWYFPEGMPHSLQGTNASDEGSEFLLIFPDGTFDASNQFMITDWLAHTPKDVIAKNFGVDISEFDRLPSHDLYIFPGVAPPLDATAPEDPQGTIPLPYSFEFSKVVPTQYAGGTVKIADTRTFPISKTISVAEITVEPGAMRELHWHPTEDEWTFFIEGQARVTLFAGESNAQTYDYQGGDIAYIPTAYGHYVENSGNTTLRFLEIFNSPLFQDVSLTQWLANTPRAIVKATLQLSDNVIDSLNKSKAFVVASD
- procedureSummary: continuous coupled HRP/ABTS assay of H2O2 production, […] nm
reportedProperty: Ki (mM)

# annotated cases, reported Ki shown
Name the reported Ki value associated with the compound O=C(O)C[C@H](O)C(=O)O [malate]
52

Name the reported Ki value associated with the compound CC(=O)C(=O)O [pyruvate]
17

[1] O=CC(=O)O [glyoxylate]
[2] O=C(O)CO [glycolate]
[3] O=C(O)CC(=O)O [malonate]
Sort entries by Ki from minimum to maximum value. Answer with the labels in sequence, matching the requested order.
3, 1, 2
